Reference source for all entries: patent US11034725B2

# TARGET UNDER TEST: PCSK9Δhelix (Homo sapiens, UniProt Q8NBP7)
# Construct: Human PCSK9 construct M1-Q692 with an engineered TEV site (residue deletion Y166, R167); made in house; host or cells: CHO
# Sequence (Q8NBP7 with tags, fused parts or gaps limits assumed): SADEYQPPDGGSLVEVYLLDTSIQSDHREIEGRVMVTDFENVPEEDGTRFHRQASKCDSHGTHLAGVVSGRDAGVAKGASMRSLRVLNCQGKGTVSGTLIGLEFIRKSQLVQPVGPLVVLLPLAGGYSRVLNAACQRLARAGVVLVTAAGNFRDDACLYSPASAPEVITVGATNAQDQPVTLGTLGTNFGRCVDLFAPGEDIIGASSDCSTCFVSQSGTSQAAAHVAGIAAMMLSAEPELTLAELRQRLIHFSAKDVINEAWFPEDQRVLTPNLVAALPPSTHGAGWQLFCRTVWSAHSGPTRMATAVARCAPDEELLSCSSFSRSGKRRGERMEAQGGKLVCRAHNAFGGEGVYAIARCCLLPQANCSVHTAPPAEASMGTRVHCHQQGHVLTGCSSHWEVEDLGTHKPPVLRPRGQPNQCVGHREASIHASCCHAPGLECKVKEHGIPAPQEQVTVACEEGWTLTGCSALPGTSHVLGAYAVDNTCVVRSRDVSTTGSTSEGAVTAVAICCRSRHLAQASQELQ
# Sequence (Q8NBP7 31-152 partner limits assumed): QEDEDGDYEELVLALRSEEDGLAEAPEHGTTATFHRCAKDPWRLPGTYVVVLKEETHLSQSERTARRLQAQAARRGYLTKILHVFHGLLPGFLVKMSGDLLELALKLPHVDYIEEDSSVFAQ
# EXPERIMENT DESCRIPTION: PCSK9Δhelix/Ab20 TR-FRET binding assay
# CONDITION CONTEXT: TR-FRET, Example 7; read-out: PCSK9Δhelix/Ab20 IC50
pIC50: −log10 of the molar value.
Quick list: pIC50 per entry.

Consider the reported pIC50 for these substances:
Requested read-out: pIC50. Entry: Ac-WNLVRIGL-NH2 [Compound 120] ≤ 4.31

Requested read-out: pIC50. Entry: Ac-PWNLVRIGL-NH2 [Compound 119] ≤ 4.31

Requested read-out: pIC50. Entry: Ac-DLMPWNLVRAGLLR-NH2 [Compound 58] < 4.31

Requested read-out: pIC50. Entry: Ac-DLMPWNLVRIG-NH2 [Compound 48] ≤ 4.31

Requested read-out: pIC50. Entry: Ac-DLMPANLVRIGLLR-NH2 [Compound 41] < 4.31

Others:
Requested read-out: pIC50. Entry: Ac-DLMPWNLVRIALLR-NH2 [Compound 57] < 4.31

Requested read-out: pIC50. Entry: Ac-DLMPWALVRIGLLR-NH2 [Compound 62] < 4.31

----------
Quick list: IC50 per entry.
# TARGET UNDER TEST: UniProt:Q8NBP7
# EXPERIMENT DESCRIPTION: PCSK9/EGF(A) TR-FRET binding assay
# CONDITION CONTEXT: TR-FRET; Table 8E, additional compounds; read-out: PCSK9/EGF(A) IC50
Square brackets hold non-standard residues; d marks the D form. Peptide text beside a SMILES is read from it. * marks the point of attachment. X20 = O=C(c1cc(-c2ccncc2)n[nH]1)*; hArg = N=C(N)NCCCC[C@H](N)C(=O)O; X10 = Nc1cccc(CCC(=O)*)c1
Number in µM, nothing else.

Requested read-out: IC50. Entry: CC[C@H](C)[C@H](NC(=O)[C@H](CCCCNC(=N)N)NC(=O)[C@@H](NC(=O)[C@H](CC(C)C)NC(=O)[C@H](CC(N)=O)NC(=O)[C@H](Cc1c[nH]c2ccccc12)NC(=O)CCc1cccc(N)c1)C(C)C)C(=O)NCC(=O)N[C@@H](CC(C)C)C(=O)N[C@@H](CC(C)C)C(=O)N[C@@H](CCCNC(=N)N)C(N)=O [Compound 215] (X10-WNLV[hArg]IGLLR-NH2) 7

Requested read-out: IC50. Entry: CC[C@H](C)[C@H](NC(=O)[C@H](CCCNC(=N)N)NC(=O)[C@@H](NC(=O)[C@H](CC(C)C)NC(=O)[C@H](CC(N)=O)NC(=O)[C@H](Cc1c[nH]c2ccccc12)NC(=O)c1cc(-c2ccncc2)n[nH]1)C(C)C)C(=O)NCC(=O)N[C@@H](CC(C)C)C(=O)N[C@H](C(=O)N[C@@H](CCCNC(=N)N)C(N)=O)[C@@H](C)O [Compound 188] (X20-WNLVRIGLTR-NH2) 22
